# target-or-system: EPHB2 (UniProt P29323)
# Sequence (P29323 whole entry, looked up): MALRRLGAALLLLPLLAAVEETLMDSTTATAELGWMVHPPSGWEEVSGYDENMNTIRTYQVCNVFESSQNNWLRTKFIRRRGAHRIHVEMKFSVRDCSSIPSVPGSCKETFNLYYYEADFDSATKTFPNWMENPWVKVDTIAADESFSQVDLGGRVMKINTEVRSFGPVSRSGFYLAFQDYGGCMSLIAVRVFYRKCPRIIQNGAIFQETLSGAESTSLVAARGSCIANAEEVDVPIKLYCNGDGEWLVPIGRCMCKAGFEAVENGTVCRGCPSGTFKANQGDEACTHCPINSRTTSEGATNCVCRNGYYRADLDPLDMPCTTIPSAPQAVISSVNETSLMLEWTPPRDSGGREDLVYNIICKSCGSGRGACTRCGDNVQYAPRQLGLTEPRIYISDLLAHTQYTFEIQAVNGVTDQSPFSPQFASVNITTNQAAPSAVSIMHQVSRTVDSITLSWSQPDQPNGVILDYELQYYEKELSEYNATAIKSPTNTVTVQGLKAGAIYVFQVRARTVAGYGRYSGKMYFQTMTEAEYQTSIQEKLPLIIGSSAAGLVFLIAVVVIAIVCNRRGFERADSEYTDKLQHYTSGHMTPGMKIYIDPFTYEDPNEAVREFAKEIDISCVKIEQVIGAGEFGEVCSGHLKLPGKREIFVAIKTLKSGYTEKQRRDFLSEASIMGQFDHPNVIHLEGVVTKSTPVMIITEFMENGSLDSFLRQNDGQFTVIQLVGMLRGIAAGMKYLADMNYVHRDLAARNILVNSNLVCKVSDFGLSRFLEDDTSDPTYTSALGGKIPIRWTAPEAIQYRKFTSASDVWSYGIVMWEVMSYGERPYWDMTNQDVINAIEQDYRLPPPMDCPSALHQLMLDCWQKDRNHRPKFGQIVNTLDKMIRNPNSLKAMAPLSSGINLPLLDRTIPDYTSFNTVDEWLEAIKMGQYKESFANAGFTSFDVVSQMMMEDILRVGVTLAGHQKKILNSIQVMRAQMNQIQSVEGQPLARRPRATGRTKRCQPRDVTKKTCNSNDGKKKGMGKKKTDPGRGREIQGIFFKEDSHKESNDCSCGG
# assay-method-text: phosphorylation enrichment, bacterial display (enrichment ratio); higher = better substrate or ligand; peptides without Tyr show the background;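 further: 11-residue human phosphosite peptides and single-mutation variants displayed on the E. coli surface, counted by deep sequencing, each peptide's frequency after selection divided by its frequency in the unselected input library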;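 further: frequency after pTyr selection over input frequency; kinase dosed for 20-30% of maximal phosphorylation in three min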
endpoint-name: phosphorylation enrichment

[
  {
    "chain": "GGFTCCCDGKK [PROS1_Y266_Y266C_YF]",
    "phosphorylation enrichment": 0.659
  },
  {
    "chain": "KEGSAYGSQSV [NFKB2_Y868_D865G]",
    "phosphorylation enrichment": 0.384
  },
  {
    "chain": "VPFAQYLAMNK [HARS1_Y138_R137Q]",
    "phosphorylation enrichment": 0.431
  },
  {
    "chain": "LQLLGHRPVFS [CHST6_Y358_Y358H_YF]",
    "phosphorylation enrichment": 0.783
  },
  {
    "chain": "IYKAAYFGVYD [SLC25A4_Y191_R188K]",
    "phosphorylation enrichment": 1.32
  },
  {
    "chain": "TTSQLYDAVPI [PDPK1_Y9]",
    "phosphorylation enrichment": 17.1
  },
  {
    "chain": "VEDQFYRVDCF [FHL1_Y208_C209R_YF]",
    "phosphorylation enrichment": 0.587
  },
  {
    "chain": "ISSLDYISKTK [VAV3_Y294]",
    "phosphorylation enrichment": 0.463
  }
]

# batch size: 4; output phosphorylation enrichment per entry
1. RSSKMYFKTRS [LPL_Y329_L330F]
2. NYADPYRQLPY [CTNND2_Y503_Q507P]
3. LITTLYSGFLG [KCNQ1_Y267_I268S]
4. FTGVEYSSCDT [EPHA3_Y937]

[0.567, 10.7, 0.611, 0.637]

For each of the sequences below, note its phosphorylation enrichment.
1. VVAHHYSFAPD [TNS3_Y601_Q600H]
2. LRSELYFLIAR [PHIP_Y16]
3. LISVSYDDWDF [GRIN2A_Y281_YF]
4. KGIQLYDTPFE [SHB_Y297_YF]
5. GKTFTYRSVFF [ZNF80_Y200]

1. 0.502
2. 1.4
3. 1
4. 12.9
5. 0.466

I need phosphorylation enrichment for every entry listed below, if you could help.
1. VNYGAYINNFK [GLB1_Y488_D491N]
2. IGGHAYGDQYR [IDH1_Y135_R132G]
3. YQASYYRRGDR [LTK_Y677_R673Q]
4. LFEDHYLLGTS [ASS1_Y87_R86H_YF]
5. RQEEEYKRFSE [SFSWAP_Y133_L136F]
6. AALLNYKAGRD [GRIN2A_Y737_V734L]

1: 1.17; 2: 0.368; 3: 0.399; 4: 0.586; 5: 0.88; 6: 0.465

Hey, quick one: what's phosphorylation enrichment for each of these?
1. HCFNSYTFPRL [PAK7_Y316_S312C_YF]
2. HAVFVCDICHV [TWNK_Y508_Y508C_YF]
3. GPTLSYGRDGR [MATR3_Y158]
4. LIHLHYIRRDF [BBS4_Y43_K46R_YF]
5. FYDANYDGKEY [MAPRE2_Y162]
6. SSFSGYIMMPN [LEF1_Y114_YF]
7. YLENYYDLKKD [MMP3_Y42]

1: 0.743; 2: 0.631; 3: 0.347; 4: 0.707; 5: 1.23; 6: 1.47; 7: 3.03

Hi! Can you tell me phosphorylation enrichment for each of these sequences?
1. TGNGFYFRVFS [MYBPC3_Y1136_I1131T_YF]
2. QTLTDYDTRFF [CSNK2A3_Y131_I133T_YF]
3. TLQSMFGCDVG [HLA-B_Y123_Y123F]
4. GYSRHCEDGYP [CTNND1_Y217_Y217C]

0.517
0.823
0.85
0.83

I'm hoping you can list phosphorylation enrichment for every sequence here, please.
1. IKGIRYLHHQG [GUCY2D_Y656_R660Q]
2. CVAARYMDMKG [WFIKKN2_Y93_V96M]
3. KLKEKYEKDIA [HMGB1_Y155]
4. KIKLNYTLPQD [NRAP_Y523_N519I]
5. QQLVAYYSKHA [SRC_Y232]
6. VVQGIYGFHHF [UFSP2_Y285_YF]

0.387
0.428
0.495
0.447
0.916
5.04

Give one value of phosphorylation enrichment per listed sequence.
1. LGQRIYQYIRS [DYRK1B_Y271_Q275R]
2. TLNHQYDFTFH [CSNK1A1_Y292_D297H_YF]
3. SVKVYYKKCWS [EPHA7_Y202]
4. MDFRSYPHEFG [RBM10_Y44_R46H_YF]
5. WQQQSYLDLGI [CTNNB1_Y30_S33L]
6. DEEPPHRGPFC [SASH1_Y551_Y551H]
7. RSPLRYTSILT [OR51B6_Y130]
8. VTVLDYEKIGK [SYT1_Y365_D366E]

3.2
0.624
0.432
0.402
0.593
0.783
0.532
0.524

Please give phosphorylation enrichment, item by item, for the list that follows.
1. KPFRVYCDMNT [FGB_Y269_YF]
2. QPEDIYHQTWA [GBA_Y244_G241E]
3. GLAKEYIDPET [CSNK1G2_Y195]
4. SHPSSYTTHPQ [NIPBL_Y195]

0.72
0.673
0.462
0.384
